pEC50 overview
- SYSTEM: UniProtKB P11229
- Sequence (P11229 whole entry): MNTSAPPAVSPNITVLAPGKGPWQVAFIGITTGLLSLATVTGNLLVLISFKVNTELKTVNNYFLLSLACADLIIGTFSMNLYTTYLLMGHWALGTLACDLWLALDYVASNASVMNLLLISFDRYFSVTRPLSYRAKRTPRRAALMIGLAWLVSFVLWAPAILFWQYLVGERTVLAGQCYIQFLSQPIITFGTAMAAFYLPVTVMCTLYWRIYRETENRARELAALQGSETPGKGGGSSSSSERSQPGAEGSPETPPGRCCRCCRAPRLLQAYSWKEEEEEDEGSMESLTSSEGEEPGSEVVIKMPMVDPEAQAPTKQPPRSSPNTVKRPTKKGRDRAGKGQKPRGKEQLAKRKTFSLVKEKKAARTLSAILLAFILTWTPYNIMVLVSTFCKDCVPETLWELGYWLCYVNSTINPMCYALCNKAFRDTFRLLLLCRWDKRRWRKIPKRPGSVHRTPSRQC
- EXPERIMENT: M1 GTPγS binding assay
As a rule, pEC50 stands for the negative log10 of the concentration, concentration in M.

COMPOUND	SYSTEM	pEC50
C#CCO[C@H]1C[C@H]2CC[C@@H](C1)N2C[C@@H](C)Cn1ncc2ccc(OC)cc21 [Compound 322s]	UniProtKB P11229	7.10

Q: Please report the measured pEC50 for COCC[C@H]1C[C@H]2CC[C@@H](C1)N2C[C@@H](C)Cn1ncc2ccccc21 [Compound 303S] tested on UniProtKB P11229.
Ans: 7.20

Q: Please report the measured pEC50 for "Cc1nn(C[C@H](C)CN2[C@@H]3CC[C@H]2C[C@@H](OCC2CC2)C3)c2ccccc12" tested on UniProtKB P11229.
Ans: 7.50

Q: Please report the measured pEC50 for COC/C=C1\C[C@H]2CC[C@@H](C1)N2C[C@@H](C)Cn1ncc2ccccc21 [Compound 320s] tested on UniProtKB P11229.
Ans: 6.80

Q: Please report the measured pEC50 for C[C@H](CN1[C@@H]2CC[C@H]1C[C@@H](OCC1CC1)C2)Cn1ncc2ccc(CO)cc21 [Compound 310s] tested on UniProtKB P11229.
Ans: 6.20

Q: Please report the measured pEC50 for C#CCO[C@H]1C[C@H]2CC[C@@H](C1)N2C[C@@H](C)Cn1ncc2ccccc21 [Compound 318s] tested on UniProtKB P11229.
Ans: 7.10

Q: Please report the measured pEC50 for "C=CCO[C@H]1C[C@H]2CC[C@@H](C1)N2C[C@@H](C)Cn1ncc2ccccc21" tested on UniProtKB P11229.
Ans: 7.10

Q: Please report the measured pEC50 for "Cc1ccc2c(cnn2C[C@H](C)CN2[C@@H]3CC[C@H]2C[C@@H](OCC2CC2)C3)c1" tested on UniProtKB P11229.
Ans: 7.20

Q: Please report the measured pEC50 for C[C@H](CN1[C@@H]2CC[C@H]1C[C@@H](OC1CCCC1)C2)Cn1ncc2ccccc21 [Compound 314s] tested on UniProtKB P11229.
Ans: 7.60

Q: Please report the measured pEC50 for "COc1ccc2cnn(C[C@H](C)CN3[C@@H]4CC[C@H]3C[C@@H](OCC3CC3)C4)c2c1" tested on UniProtKB P11229.
Ans: 7.30

Q: Please report the measured pEC50 for "C[C@H](CN1[C@@H]2CC[C@H]1C[C@@H](OCC1CCC1)C2)Cn1ncc2ccccc21" tested on UniProtKB P11229.
Ans: 7.30
